target: CYP2E1 (Homo sapiens)
Sequence (P05181 whole entry): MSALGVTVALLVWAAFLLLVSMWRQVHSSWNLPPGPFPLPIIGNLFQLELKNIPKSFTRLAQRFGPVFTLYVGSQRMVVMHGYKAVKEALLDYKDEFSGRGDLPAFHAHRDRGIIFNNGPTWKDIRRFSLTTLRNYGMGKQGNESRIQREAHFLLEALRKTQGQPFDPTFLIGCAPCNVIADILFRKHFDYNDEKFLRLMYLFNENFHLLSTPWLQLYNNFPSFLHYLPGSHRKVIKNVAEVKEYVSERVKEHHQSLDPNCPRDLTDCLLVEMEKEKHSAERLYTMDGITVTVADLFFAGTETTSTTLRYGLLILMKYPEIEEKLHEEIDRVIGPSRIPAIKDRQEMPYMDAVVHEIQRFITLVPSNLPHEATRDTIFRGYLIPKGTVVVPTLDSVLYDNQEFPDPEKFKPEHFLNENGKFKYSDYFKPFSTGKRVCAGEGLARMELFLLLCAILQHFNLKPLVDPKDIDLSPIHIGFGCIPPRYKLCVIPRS
pIC50: −log10 of the molar value.
valueKind: pIC50

Query: Give pIC50; test system CYP2E1 (Homo sapiens); molecule COc1ccc(-c2c(-c3ccc(O)c(OC)c3)oc3cc(OC)c(OC)cc3c2=O)cc1
Result: < 4.30

###

biological target: UniProtKB P05177
Sequence (P05177 whole entry): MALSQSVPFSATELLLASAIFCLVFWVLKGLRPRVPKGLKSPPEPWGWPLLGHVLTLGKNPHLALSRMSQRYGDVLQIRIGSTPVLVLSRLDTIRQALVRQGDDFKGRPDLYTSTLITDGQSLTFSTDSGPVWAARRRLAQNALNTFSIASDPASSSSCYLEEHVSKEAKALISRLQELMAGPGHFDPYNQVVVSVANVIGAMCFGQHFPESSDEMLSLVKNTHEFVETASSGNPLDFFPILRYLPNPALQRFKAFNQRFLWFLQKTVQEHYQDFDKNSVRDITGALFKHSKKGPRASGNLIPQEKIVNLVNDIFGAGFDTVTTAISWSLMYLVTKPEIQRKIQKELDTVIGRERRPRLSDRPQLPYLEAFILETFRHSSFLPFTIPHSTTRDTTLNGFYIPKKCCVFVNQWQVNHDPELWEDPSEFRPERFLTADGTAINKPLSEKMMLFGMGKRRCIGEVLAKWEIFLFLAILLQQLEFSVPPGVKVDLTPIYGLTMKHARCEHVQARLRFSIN
valueKind: IC50

Query: Give IC50; test system UniProtKB P05177; molecule COc1ccc(-c2c(-c3ccc(O)c(OC)c3)oc3cc(OC)c(OC)cc3c2=O)cc1 [ACF-2]
Result: > 50 µM

###

experiment: Metabolic stability in pooled human liver microsomes; format: in vitro ADME; conditions: with NADPH, 0–60 min, read-out: half-life (t1/2) in HLMs
valueKind: half-life at 1 µM

Query: Report measured half-life at 1 µM; entry is COc1ccc(-c2c(-c3ccc(O)c(OC)c3)oc3cc(OC)c(OC)cc3c2=O)cc1
Result: > 1 h
